# TGI listing for each entry below
system: OVCAR-5 ovarian; experiment: NCI tumour cell line growth inhibition, 48 h

Please review the entries below; each comes with its answer.
Input: Respond only with TGI recorded for `Cc1c2c(nn1-c1ccc(S/N=C3\SCC(=O)CN3Cc3ccccc3)cc1)-c1ccccc1CC2`
Output: > 100 µM

Input: Respond only with TGI recorded for `COc1cc(/C=C2\C[C@H]3[C@@H]4CC=C5C[C@@H](OC(C)=O)CC[C@]5(C)[C@H]4CC[C@]3(C)\C2=N\O)cc(OC)c1OC`
Output: > 100 µM

Input: Respond only with TGI recorded for `COC(=O)CN1Cc2cc(C)cc(c2O)CN(CC(=O)OC)Cc2cc(C)cc(c2O)CN(CC(=O)OC)Cc2cc(C)cc(c2O)C1`
Output: > 100 µM

Input: Respond only with TGI recorded for CC(OC(C)(C)C)[C@H](NC(=O)OCc1ccccc1)C(=O)NC(OCc1ccccc1)[C@H]1COC(C)(C)O1 (stereo not given in full)
Output: > 10 µM

Input: Respond only with TGI recorded for `C/C(=C1\SC(=NCc2cccs2)NC1=O)c1ccc2ncccc2c1`
Output: > 25 µM

Input: Respond only with TGI recorded for `CN(C)CCn1cnc2sc3ccccc3c21`
Output: > 100 µM

***
Input: Respond only with TGI recorded for `CC(C)(C)C1=Nc2c(Br)cc(C(C)(C)C)cc2C(C(F)(F)F)(C(F)(F)F)O1`
Output: > 100 µM

Input: Respond only with TGI recorded for `Cc1n[nH]c(=O)n1/N=C/c1ccc([N+](=O)[O-])cc1`
Output: > 100 µM

Input: Respond only with TGI recorded for Cc1cc(S(=O)(=O)NC2=NCC(C)NN2)c(S)cc1Cl (stereo not given)
Output: > 100 µM

Input: Respond only with TGI recorded for NC(=O)C(N)CC12CC3CC(CC(C3)C1)C2 (stereo not given)
Output: 42.4 µM

====

tested on: LOX IMVI melanoma; assay: NCI tumour cell line growth inhibition, 48 h
parameter: TGI

Please review the entries below; each comes with its answer.
Input: Respond only with TGI recorded for `COc1cc(/C=C2\C[C@H]3[C@@H]4CC=C5C[C@@H](OC(C)=O)CC[C@]5(C)[C@H]4CC[C@]3(C)\C2=N\O)cc(OC)c1OC`
Output: 38.4 µM

Input: Respond only with TGI recorded for `N#CSCc1nc2ccc(Cl)cc2c(-c2ccccc2)[n+]1[O-]`
Output: 31.9 µM

Input: Respond only with TGI recorded for `Clc1nc(Cl)c2ncn(C/C=C\COc3cccc(OC/C=C\Cn4cnc5c(Cl)nc(Cl)nc54)c3)c2n1`
Output: 43.8 µM

Input: Respond only with TGI recorded for `COc1cc(C)cc2c1[nH]c1ccccc12`
Output: > 25 µM

Let us move to another entry and its TGI.
Input: Respond only with TGI recorded for COc1ccc(C2C(C#N)=C(N)Oc3c2sc2c(F)cccc32)cc1 (stereo not given)
Output: 12.4 µM

====

test system: MCF7 breast; experiment: NCI tumour cell line growth inhibition, 48 h; in the data active = GI50 below about 0.43 µM; inactive = the rest
Respond using exactly one of the listed classes: active, inactive

Solved entries:
Input: Hi, do you know how `Clc1ccc(CNc2ccc3nc(CCC4CCCCC4)[nH]c3c2)cc1` came out in this test?
Output: inactive

Input: Hi, do you know how `CSc1nc(N)cc(Oc2ccc(-c3nc(Nc4cccc(C(F)(F)F)c4)n[nH]3)cc2)n1` came out in this test?
Output: active

Now let's try a different one.
Input: Hi, do you know how `O=C(NCCCN1CCC(N2CCCCC2)CC1)C1=Cc2cc(Br)ccc2OC1` came out in this test?
Output: inactive

====

# TGI listing for each entry below
test system: OVCAR-5 ovarian; assay: NCI tumour cell line growth inhibition, 48 h

Please review the entries below; each comes with its answer.
Input: Respond only with TGI recorded for `COc1ccc(-c2nc(N)n(C)c2SSc2c(-c3ccc(OC)cc3)nc(N)n2C)cc1`
Output: 14.5 µM

Input: Respond only with TGI recorded for CC(c1ccccc1)N1O[C@]12CC[C@@]1(C)C(CCCC13OCCO3)C2 (stereo not given in full)
Output: > 100 µM

Input: Respond only with TGI recorded for `O=[N+]([O-])c1ccccc1N=Nc1c(O)[nH]c2ccc(S(=O)(=O)O)cc12`
Output: > 100 µM

***
Input: Respond only with TGI recorded for CC1(C(=O)Nc2ccc3cc4ccccc4cc3c2)CC2(C)CC(C)(C1)C(O)NC2=O (stereo not given)
Output: > 100 µM

Input: Respond only with TGI recorded for `CCOC(=O)c1c(SC(=O)C(C)(C)Oc2ccc(Cl)cc2)n(-c2ccccc2)c(=S)n(-c2ccccc2)c1=O`
Output: > 100 µM

Input: Respond only with TGI recorded for `CN=c1ss/c(=N\C(=S)N(C)C)n1-c1ccccc1`
Output: > 100 µM

Input: Respond only with TGI recorded for `C=CCNCCN1C(=O)c2ccc3c4c(ccc(c24)C1=O)C(=O)N(CCNCC=C)C3=O`
Output: 3.09 µM

Input: Respond only with TGI recorded for COc1ccc(C2C(C#N)=C(N)Oc3c2sc2c(F)cccc32)cc1 (stereo not given)
Output: 27.6 µM

Input: Respond only with TGI recorded for COc1cccc(CC2C(=O)N=C(NC(C)=O)N2C)c1OC(C)=O (stereo not given)
Output: > 100 µM

Input: Respond only with TGI recorded for `CCc1nnc(CC)n1N1C(=O)CCC1=O`
Output: > 100 µM

====

system: EKVX NSCLC; experiment: NCI tumour cell line growth inhibition, 48 h
parameter: TGI (µM)
State just the number; it will be interpreted in µM.

Please review the entries below; each comes with its answer.
Input: Respond only with TGI recorded for NC(=O)C(N)CC12CC3CC(CC(C3)C1)C2 (stereo not given)
Output: 97.5

Input: Respond only with TGI recorded for `Cn1c(=O)c2ccccc2c2ccccc21`
Output: 63.1

Input: Respond only with TGI recorded for `COc1cccc(/C(COc2ccc3c(c2)oc(=O)c2ccccc23)=N\O)c1`
Output: 66.2

Input: Respond only with TGI recorded for `N#CSCc1nc2ccc(Cl)cc2c(-c2ccccc2)[n+]1[O-]`
Output: 40.9

Input: Respond only with TGI recorded for `CCC(=O)c1c(C(F)(F)F)n([O-])c2cc(N3CCNCC3)c(F)cc2[n+]1=O`
Output: 13.7

***
Input: Respond only with TGI recorded for `Clc1ccc(CNc2ccc3nc(CCC4CCCCC4)[nH]c3c2)cc1`
Output: 7.06

Input: Respond only with TGI recorded for `CCCN1CCN(c2ccc3nc(-c4ccc5nc(-c6ccc(C(F)(F)F)cc6)[nH]c5c4)[nH]c3c2)CC1`
Output: 3.33

Input: Respond only with TGI recorded for `c1ccc(Cc2cc(-c3ccccc3)n[nH]2)cc1`
Output: 27.5

Input: Respond only with TGI recorded for CC(=O)OC1CC(OC2C(O)CC(OC3C(O)CC(OC4CCC5(C)C(CCC6C5CCC5(C)C(C7=CC(=O)OC7)C(O)CC65O)C4)OC3C)OC2C)OC(C)C1OC1OC(CO)C(O)C(O)C1O (stereo not given)
Output: 0.803

====

test system: HS 578T breast; assay: NCI tumour cell line growth inhibition, 48 h
parameter: TGI

Please review the entries below; each comes with its answer.
Input: Respond only with TGI recorded for `CS(=O)(=O)CCN(CC#N)Cc1ccc(-c2ccc3ncnc(Nc4ccc(OCc5cccc(F)c5)c(Cl)c4)c3c2)o1`
Output: > 20.4 µM

Input: Respond only with TGI recorded for `Oc1c(I)cc(I)cc1CNCCN(Cc1ccccn1)Cc1ccccn1`
Output: 7.43 µM

Input: Respond only with TGI recorded for CC(C)(C)OC(=O)NC(Cc1ccc(OCc2ccccc2)cn1)C(=O)N1CCCC1 (stereo not given)
Output: > 100 µM

Input: Respond only with TGI recorded for CC(C)(C)OC(=O)N1CC(O)O[C@H](c2ccccc2)[C@@H]1c1ccccc1 (stereo not given in full)
Output: > 100 µM

Input: Respond only with TGI recorded for `CNC(=O)Oc1ccc(C(=S)Nc2ccc(Br)cc2)cc1`
Output: > 100 µM

Input: Respond only with TGI recorded for `Nc1cccc(CCN2CCN(CCCc3ccccc3)CC2)c1`
Output: > 100 µM

***
Input: Respond only with TGI recorded for `COc1ccc(-c2nc(N)n(C)c2SSc2c(-c3ccc(OC)cc3)nc(N)n2C)cc1`
Output: 29.7 µM

Input: Respond only with TGI recorded for `O=C(O)CCN1CCN(CCC(=O)O)CCN(CCC(=O)O)CC1`
Output: > 100 µM

Input: Respond only with TGI recorded for `O=[N+]([O-])/C(C(Cl)=C(Cl)Cl)=C1\NCCS1`
Output: > 100 µM

Input: Respond only with TGI recorded for `CN1CCN(CC(=O)N2CCCn3c2nc2ccccc2c3=O)CC1`
Output: > 100 µM

====

# TGI listing for each entry below
tested on: NCI-H226 lung; experiment: NCI tumour cell line growth inhibition, 48 h

Please review the entries below; each comes with its answer.
Input: Respond only with TGI recorded for `O=C(O)CCN1CCN(CCC(=O)O)CCN(CCC(=O)O)CC1`
Output: > 100 µM

Input: Respond only with TGI recorded for `COC(=O)c1cc2/c(=N/O)c3ccccc3sc2o1`
Output: > 100 µM

Input: Respond only with TGI recorded for O=C1C(Br)=CC2C1C1C3CCC3C2(Br)C12OCCO2 (centres undefined)
Output: 20.4 µM

Input: Respond only with TGI recorded for COc1ccc2c(c1)OCCCN(C)OC2c1ccccc1 (centres undefined)
Output: > 100 µM

Input: Respond only with TGI recorded for `CSc1nc(N)cc(Oc2ccc(-c3nc(Nc4cccc(C(F)(F)F)c4)n[nH]3)cc2)n1`
Output: 7.69 µM

Input: Respond only with TGI recorded for `COc1ccn(CC(=O)c2cc3ccccc3[nH]2)c(=O)n1`
Output: > 100 µM

***
Input: Respond only with TGI recorded for `CC(C)NC(=O)OCc1c(COC(=O)NC(C)C)c(-c2ccc[n+](COC(=O)C(C)C)c2)n2c1CCC2`
Output: > 100 µM

Input: Respond only with TGI recorded for `Cn1c(=O)c2ccccc2c2ccccc21`
Output: > 100 µM

Hey, just so you know, these numbers are from PubChem BioAssay (NCI).
